// data source = PubChem BioAssay (NCI)

Test system: IGROV1 ovarian
Experiment: NCI tumour cell line growth inhibition, 48 h
Below: a set of entries, each annotated with reported TGI.

Solved entries (count: 4):
CC1C=C(OC(=O)c2ccccc2)C(=O)C(n2cc(F)c(=O)n(C(=O)c3ccccc3)c2=O)O1 (stereo not given) : > 100 µM
CN(C)c1ccc(/C=C2\CNC/C(=C\c3ccc(N(C)C)cc3)C2=O)cc1 : 97.1 µM
c1ccc2nc3[nH]c4ccccc4c3cc2c1 : 2.57 µM
CCOC(=O)/C=C1\SC(=Nc2ccc(C#N)cc2)N(CCN2C(=O)/C(=C/C(=O)OCC)SC2=Nc2ccc(C#N)cc2)C1=O : 10.7 µM

Read the next record carefully.
Give its TGI value. Item: `Nc1c(C(=O)c2cccc(OCCN3CCOCC3)c2)cnn1-c1ccc(F)cc1`
> 25 µM

----------
System: SK-MEL-2 melanoma
Assay: NCI tumour cell line growth inhibition, 48 h
Below: a set of entries, each annotated with reported GI50.

Solved entries (count: 4):
CC[N+](CC)=c1ccc2nc3c(cc(NCc4ccccc4)c4ccccc43)oc-2c1 : 0.737 µM
O=S(=O)(NC(=S)Nc1ccccc1)c1ccc(N2N=C3c4ccccc4CC3C2c2cccs2)cc1 (stereo not given) : 59.9 µM
COc1cc2cc(Oc3ccc(NC(=O)Nc4ccccc4)cc3)c(C)nc2cc1OCCN1CCCCC1 : 5.96 µM
NC1=NC(c2ccccc2)N=C(Nc2ccccc2)N1 (stereo not given) : > 100 µM

Read the next record carefully.
Give its GI50 value. Item: `COc1ccc(-c2cnc(-c3ccc(F)cc3)[nH]2)cc1`
18.8 µM

----------
System: DU-145 prostate
Test: NCI tumour cell line growth inhibition, 48 h
Outcome label depends on TGI relative to 40 µM: at/above gives true (1), below gives false (0).

hey, is TGI for this one >= 40 µM? `CCOC(=O)/C=C1\SC(=Nc2ccc(C#N)cc2)N(CCN2C(=O)/C(=C/C(=O)OCC)SC2=Nc2ccc(C#N)cc2)C1=O`
false (0)

Now the compound `O=C1/C(=C/c2ccccc2)SC(=Nc2ccccc2)N1Nc1ccccc1`
true (1)

Now the compound CCCCCCCCCCCCCC1=NCC[N+]1(CCO)Cc1ccccc1 (centres undefined)
false (0)

Now the compound `CCC(=O)OCc1ccc2oc(=O)c(C(=O)Oc3cncc(Cl)c3)cc2c1`
true (1)

Now the compound CC1(C)OCC2OC3([C@H](O)CCO)OC(C)(C)OC3C2O1 (some centres undefined)
true (1)

Now the compound `Cc1cc(=O)oc2cc(OC(=O)Nc3ccc(Cl)c(Cl)c3)ccc12`
true (1)

Now the compound CC(C)CCCC(C)[C@H]1CC[C@H]2[C@@H]3CC[C@H]4C[C@@H](CCC=C(c5cc(Cl)c(O)c(C(=O)OC(C)(C)C)c5)c5cc(Cl)c(O)c(C(=O)OC(C)(C)C)c5)CC[C@]4(C)[C@H]3CC[C@]12C (some centres undefined)
true (1)

Now the compound `CCOC(=O)c1c(C)n(Cc2ccccc2)c2c1cc(O)c1[nH]c3c(c12)CCCC3`
false (0)

Now the compound `Cc1cc2c(cc1O)CC[C@@H]1[C@@H]2CC[C@]2(C)[C@@H](O)CC[C@@H]12`
false (0)

----------
Test system: DU-145 prostate
Experiment: NCI tumour cell line growth inhibition, 48 h
test.readout: TGI (µM)
// return numeric value only (unit: µM, not printed)

Solved entries (count: 3):
Cc1cccc2sc(NC(=O)c3cc([N+](=O)[O-])ccc3Cl)nc12 : 17.4
CCN1/C(=C/c2ccc3ccccc3[n+]2CC)C=Cc2ccccc21 : 15.7
C[n+]1c2ccccc2c(CNC(CCC(N)=O)C(=O)O)c2ccccc21 (stereo not given) : 11.4

Kindly state the measured TGI obtained for `CC[N+](CC)=c1ccc2nc3c(cc(NCc4ccccc4)c4ccccc43)oc-2c1` with DU-145 prostate.
0.291

Now the molecule `CN1CCN(CC(=O)Nc2ccc3ncnc(Nc4ccc(Oc5cccc(C(F)(F)F)c5)c(Cl)c4)c3c2)CC1`
2.71

----------
Tested on: A549 NSCLC
Experiment: NCI tumour cell line growth inhibition, 48 h; in the data active means GI50 below about 0.43 µM; inactive means the rest
Please answer using one outcome listed in active, inactive

Solved cases below.
CS(=O)(=O)N1CCN(Cc2cc3nc(-c4cccc5[nH]ncc45)nc(N4CCOCC4)c3s2)CC1 (tested in a mixture with another compound) : active
C#CCN1CCN(C(=S)N/N=C(\C)c2ccccn2)CC1 : active
O=C1c2ccccc2S(=O)(=O)N1CSC(=S)N1CCCC1 : inactive

So what was the verdict on C/C=C(\C)C(=O)O[C@@H]1C(O)[C@H]2OC(COC(=O)CCC(=O)CCCCCC[C@H](CCCCC)O[C@@H]3OC(C)[C@H](OC(C)=O)C(O)[C@H]3O2)[C@H]1OC(=O)/C=C/c1ccccc1 (stereo not given in full) in this test?
active

Now the compound `CN1CCN(c2ccc(-c3cnc4c(-c5csc6ccccc56)cnn4c3)cc2)CC1`
inactive

Now the compound `CC(C)(C)OC(=O)NCCCCCCCCn1c2c(c3ccccc3c1=O)C(=O)c1ccccc1-2`
inactive

Now the compound `Nc1ccc(C#Cc2cncnc2Nc2ccc(OCc3cccc(F)c3)c(Cl)c2)cc1`
inactive

Now the compound `O=C(Oc1ccc([N+](=O)[O-])cc1)N1CCN(Cc2cccc(Oc3ccccc3)c2)CC1`
inactive

Now the compound `O=C1C(Cl)=C(Nc2ccc3cn[nH]c3c2)C(=O)c2ccccc21`
inactive

Now the compound `O=C([O-])c1ccc2c(c1)-c1nc-2nc2[n-]c(nc3nc(nc4[n-]c(n1)c1ccc(C(=O)[O-])cc41)-c1cc(C(=O)[O-])ccc1-3)c1ccc(C(=O)[O-])cc21.[Fe+2]`
inactive

----------
System: MDA-MB-231 breast
Assay: NCI tumour cell line growth inhibition, 48 h
test.readout: TGI (µM)
// return numeric value only (unit: µM, not printed)

Solved entries (count: 3):
CCCCCCCCCCCCCC1=NCC[N+]1(CCO)Cc1ccccc1 (centres undefined) : 3.14
COC(=O)C(NC(=O)CNC(=O)CSc1nnc(COc2ccc(Cl)cc2)n1-c1ccccc1)C(C)C (centres undefined) : 36.5
O=[N+]([O-])CC(SCc1ccccc1)c1ccc2c(c1)OCO2 (centres undefined) : 25.6

Give its TGI value. Item: FC(F)(F)c1ccc2c(c1)nc(Cc1ccccc1)n2C[C@@H]1CCCN2CCCCC12 (some centres undefined)
27.8

----------
System: RXF-631 renal
Test: NCI tumour cell line growth inhibition, 48 h
Below: a set of entries, each annotated with reported TGI.

Solved entries (count: 3):
CN(C)C(=O)CC(C(=O)O)c1c[nH]c2ccccc12 (centres undefined) : > 100 µM
CC(=O)OCC1OC(OC2CC3C(C)(C)C(OC(C)=O)CC[C@]3(C)C3CCC45CC4(CC[C@H]5C(C)CC(O)C4OC4(C)C)[C@]23C)C(O)C(O)C1O (some centres undefined) : 9.55 µM
Cc1cc2c(c3oc(C(O)(CO)C4CO4)cc(=O)c13)C(=O)c1c(O)cccc1C2=O (centres undefined) : > 100 µM

Give its TGI value. Item: `Cc1cc(Cc2cc(C)c(NC(=O)C(=O)C3C(=O)NC(=S)NC3=O)c(C(C)C)c2)cc(C(C)C)c1NC(=O)C(=O)C1C(=O)NC(=S)NC1=O`
> 100 µM

----------
Test system: UACC-257 melanoma
Experiment: NCI tumour cell line growth inhibition, 48 h; in the data active means GI50 below about 0.43 µM; inactive means the rest
Please answer using one outcome listed in active, inactive

So what was the verdict on `COc1cc(NN=C(c2ccc(O)cc2)c2ccc(O)cc2)c([N+](=O)[O-])cc1[N+](=O)[O-]` in this test?
inactive

Now the molecule `O=C1c2cccnc2-c2nc(/C=C/c3ccccc3)cc3c2c1nc1ccccc13`
inactive

Now the molecule `Nc1ccc(C#Cc2cncnc2Nc2ccc(OCc3cccc(F)c3)c(Cl)c2)cc1`
inactive

Now the molecule `C=C1C(=O)O[C@H]2[C@H]1CC/C(COC(=O)C(=O)c1c[nH]c3ccc(OC)cc13)=C\CC[C@@]1(C)O[C@@H]21`
inactive

----------
Below: a set of entries, each annotated with reported GI50.
Test system: OVCAR-8 ovarian
Assay: NCI tumour cell line growth inhibition, 48 h

Solved entries (count: 3):
COc1cc2cc(Oc3ccc(NC(=O)Nc4ccccc4)cc3)c(C)nc2cc1OCCN1CCCCC1 : 6.26 µM
C/C=C(\C)C(=O)O[C@@H]1C(O)[C@H]2OC(COC(=O)CCC(=O)CCCCCC[C@H](CCCCC)O[C@@H]3OC(C)[C@H](OC(C)=O)C(O)[C@H]3O2)[C@H]1OC(=O)/C=C/c1ccccc1 (some centres undefined) : < 0.0341 µM
COc1ccc(/C=C(/C(=O)N2CCCC2)c2cc(OC)c(OC)c(OC)c2)cc1N : 8.92 µM

Give its GI50 value. Item: `Nc1c(C(=O)c2cccc(OCCN3CCOCC3)c2)cnn1-c1ccc(F)cc1`
> 25 µM

----------
Test system: LOX IMVI melanoma
Assay: NCI tumour cell line growth inhibition, 48 h
test.readout: TGI

Give its TGI value. Item: `Nc1nc2ccc([C@@H]3Nc4ccc5[nH]ncc5c4[C@H]4[C@H]5CCC(C5)[C@H]43)cc2s1`
2.54 µM

Now the compound `CCC(C(=O)[O-])C(=O)[O-].CCC(C(=O)[O-])C(=O)[O-].N.N.NCCCCCN.[Pt+4].[Pt+4]`
> 100 µM

Now the compound `Cc1ccc(C(=O)CC(Cl)=C(Cl)Cl)cc1`
> 100 µM

Now the compound `CCCCn1c2c(c3ccccc3c1=O)C(=O)c1ccccc1-2`
> 100 µM

Now the compound O=C(O)CCC1COc2ccccc2O1 (stereo not given)
> 10 µM
